# assay_details: Calibration of free NIR probe/sensor by bilirubin titration (cuvette fluorometry, fit with equation 1)
# Type: binding
# experimental_conditions: effect of fluorophore (cysteine) position; responder probe labeled with 700DX-maleimide
# Method: […] Also described are methods for calibrating and using a bilirubin sensor described herein so that Bf concentrations can be determined in approximately 5 μl of undiluted blood samples in a single step. […] The bilirubin sensor containing cartridges are preferably used for a single measurement and the calibration parameters (Kd, Rm, Ro) must be determined within a “lot” of identically manufactured cartridges. […]
Parameter: Kd. Scope: all listed entries.
observable: Kd (nM)

| molecule | meas_value |
| --- | --- |
| 33C-C2XH11-700DXM: rIFABP mutein MGI-KR14-14R 18L 27A 33C 38V 60R 73F 106L 115R 117D 131D-C2XH11 labeled with LICOR 700DX-maleimide (protein, C2XH11 tag; LICOR 700DX-maleimide label; mutated bf sensitive probe, rIFABP mutein MGI-KR14-14R 18L 27A 33C 38V 60R 73F 106L 115R 117D 131D-C2XH11 labeled with LICOR 700DX-maleimide) MGIAFDGTWRVDRNENRERFLERMGINVVARRLGACDNLRVTITQEGNRFTVRESSNFRNIDRVFELGVDFAYSLFDGTELTGTWTMEGNRLVGRFRRVDNGRELIAVLEISGNELIRTDTYEGVEARRIFRRDRGAASHHHHHHSHRATPNTSPHHHHHHH | 25 |
| 54C-C2XH11-700DXM: rIFABP mutein MGI-KR14-14R 18L 27A 38V 54C 60R 73F 106L 115R 117D 131D-C2XH11 labeled with LICOR 700DX-maleimide (protein, C2XH11 tag; LICOR 700DX-maleimide label; mutated bf sensitive probe, rIFABP mutein MGI-KR14-14R 18L 27A 38V 54C 60R 73F 106L 115R 117D 131D-C2XH11 labeled with LICOR 700DX-maleimide) MGIAFDGTWRVDRNENRERFLERMGINVVARRLGAHDNLRVTITQEGNRFTVRESSCFRNIDRVFELGVDFAYSLFDGTELTGTWTMEGNRLVGRFRRVDNGRELIAVLEISGNELIRTDTYEGVEARRIFRRDRGAASHHHHHHSHRATPNTSPHHHHHHH | 22 |
